Test: in vitro
Conditions: human, plasma
Form field: fraction unbound at 5 h (one value per entry).

>  <Compound>
CCNC(=O)C[C@@H]1N=C(c2ccc(Cl)cc2)c2cc(OC)ccc2-n2c(C)nnc21

>  <fraction unbound at 5 h>
0.24

$$$$
>  <Compound>
CCN(CC)CCN1C(=O)[C@@](O)(c2ccccc2Cl)c2c1cc(C(N)=O)cc2C(F)(F)F

>  <fraction unbound at 5 h>
0.289

$$$$
>  <Compound>
COC(=O)C1=C(C)NC(C)=C(C(=O)OC)C1c1ccccc1[N+](=O)[O-]

>  <fraction unbound at 5 h>
0.0383

$$$$
>  <Compound>
CCCSc1ccc2nc(NC(=O)OC)[nH]c2c1

>  <fraction unbound at 5 h>
0.0457

$$$$
>  <Compound>
O=P(c1ccccc1)(c1ccccc1)N(Cc1ccccn1)Cc1ccccn1

>  <fraction unbound at 5 h>
0.0049

$$$$
>  <Compound>
C[C@H](Oc1ccc(Cl)cc1CN1CCN(C(=O)Cc2ccc(Cl)cc2)[C@@H](C)C1)C(=O)O

>  <fraction unbound at 5 h>
0.0256

$$$$
>  <Compound>
CNC(=O)CCCN(C)C(=O)c1ccc2c(c1)c1c(n2C)CC[C@@H](C2CCOCC2)C1

>  <fraction unbound at 5 h>
0.0366

$$$$
>  <Compound>
CS(=O)(=O)c1ccc([C@@H](O)[C@@H](CF)NC(=O)C(Cl)Cl)cc1

>  <fraction unbound at 5 h>
0.676

$$$$
>  <Compound>
Cc1ccccc1-n1c(Cn2cnc3c(N)ncnc32)nc2cccc(C)c2c1=O

>  <fraction unbound at 5 h>
0.0136

$$$$
>  <Compound>
C/C=C/c1ccc(Oc2nnnn2-c2ccc(C(N)=O)cc2)c(OC)c1

>  <fraction unbound at 5 h>
0.0268

$$$$
>  <Compound>
C[C@H]1CN(Cc2cc(Cl)ccc2OCC(=O)O)CCN1C(=O)Cc1ccccc1

>  <fraction unbound at 5 h>
0.0262

$$$$
>  <Compound>
CC(C)n1c(/C=C/C(O)CC(O)CC(=O)O)c(-c2ccc(F)cc2)c2ccccc21 (stereo not given)

>  <fraction unbound at 5 h>
0.0048

$$$$
>  <Compound>
NC(=O)NC(=O)C(Nc1ccc2c(c1)CCC2)c1ccccc1 (stereo not given)

>  <fraction unbound at 5 h>
0.03

$$$$
>  <Compound>
CCOC(=O)c1ncn2c1CN(C)C(=O)c1cc(F)ccc1-2

>  <fraction unbound at 5 h>
0.443

$$$$
>  <Compound>
CC(C)NC[C@H](O)COc1cccc2ccccc12

>  <fraction unbound at 5 h>
0.139

$$$$

====

Assay: physchem
Conditions: octan-1-ol/water, pH 7.4
Form field: logD (one value per entry).

>  <Compound>
CN1CCN(C(=O)c2ccc(C(=C3CCN(Cc4cscn4)CC3)c3cccc4cccnc34)cc2)CC1

>  <logD>
1.98

$$$$
>  <Compound>
CCCC(C)(COC(N)=O)COC(=O)NC(C)C (stereo not drawn) [CARISOPRODOL]

>  <logD>
2.01

$$$$
>  <Compound>
COC(=O)N1CCN(C(=O)Cc2ccc(Cl)c(Cl)c2)[C@H](CN2CCCC2)C1

>  <logD>
2.05

$$$$

====

Assay: physchem
Conditions: octan-1-ol/water, pH 7.4, LogD7.4

>  <Compound>
Cc1cc2n[nH]c(=O)n2c2cc(-c3ccco3)ccc12

>  <logD>
2.07

$$$$
>  <Compound>
COc1cnc(-c2ccccn2)nc1N(C)c1ccccc1

>  <logD>
2.79

$$$$
>  <Compound>
COc1cc(-n2cnc3cc(-c4ccc(Cl)cc4)sc3c2=O)ccc1OC[C@H](OP(=O)(O)O)C1CC1 [BMS-830216]

>  <logD>
-0.04

$$$$
>  <Compound>
O=C(Nc1cccc(Cl)c1)c1ccccn1

>  <logD>
3.4

$$$$
>  <Compound>
CCOC(=O)N1CCN(C(=O)[C@H](Cc2cccc(C(=N)N)c2)NS(=O)(=O)c2c(C(C)C)cc(C(C)C)cc2C(C)C)CC1

>  <logD>
1.67

$$$$
>  <Compound>
Oc1ccc2[nH]c(CN3CCC(Cc4ccc(F)cc4)CC3)nc2c1

>  <logD>
3.8

$$$$
>  <Compound>
CC(=O)NC[C@H]1CN(c2ccc(N3Cc4cccnc4C3)c(F)c2)C(=O)O1

>  <logD>
2.88

$$$$
>  <Compound>
c1ccc(Nc2[nH]nnc2-c2ccccc2)cc1

>  <logD>
3.37

$$$$
>  <Compound>
Cc1ccc(-n2[nH]c(=O)c3cccnc32)cc1

>  <logD>
2.1

$$$$
>  <Compound>
Cc1cc(Nc2ccccc2)n(CCC#N)n1

>  <logD>
2.3

$$$$
>  <Compound>
COc1ccc(-c2cc(Nc3ccn(C)n3)n3ncc(C#N)c3n2)cc1

>  <logD>
2.97

$$$$
>  <Compound>
C[C@H](CO)Nc1nc(SCc2cccc(F)c2F)nc2nc(N)cnc12

>  <logD>
2.89

$$$$
>  <Compound>
C1=CCC(c2cc3ccccc3o2)CNC1 (stereo not drawn)

>  <logD>
1.94

$$$$
>  <Compound>
C[C@H](CO)Nc1nc(SCc2cccc(F)c2F)nc2[nH]c(=O)cnc12

>  <logD>
3.1

$$$$
>  <Compound>
Cc1cc(C)cc(-c2[nH]c3sc(C(C)(C)C(=O)N4C5CCC4CC5)cc3c2CCN2CCN(CC(=O)N(C)C)CC2)c1

>  <logD>
4.13

$$$$
>  <Compound>
Cc1cc(C)cc(-c2c(O)nc3cc(Cl)c(C(=O)Nc4ccncn4)cc3c2OCCC2CCCCN2)c1 (stereo not drawn)

>  <logD>
1.7

$$$$
>  <Compound>
COCCN1CCN(CC(=O)Nc2ccc(-c3cccn4c(=O)cc(N5CCOCC5)nc34)c3sc4ccccc4c23)CC1

>  <logD>
3.2

$$$$
>  <Compound>
COc1ccccc1-c1coc2cc(O)ccc2c1=O

>  <logD>
2.55

$$$$
>  <Compound>
CC(C)Oc1ccc(S(C)(=O)=O)cc1C(=O)N1CCN(c2ccc(C(F)(F)F)cc2)CC1

>  <logD>
3.33

$$$$
>  <Compound>
COc1cc2c(Nc3c(Cl)ccc4c3OCO4)ncnc2cc1OCCCN1CCCCC1

>  <logD>
2.05

$$$$
>  <Compound>
COc1ccc(-c2cc(C(F)F)nn2-c2ccc(S(N)(=O)=O)cc2)cc1F [DERACOXIB]

>  <logD>
2.8

$$$$
>  <Compound>
Cn1cc[nH]c1=S [METHIMAZOLE]

>  <logD>
-0.42

$$$$
>  <Compound>
O=C(NCC1(O)CCCCCC1)c1cc(-c2ccccc2C(=O)O)ccc1Cl

>  <logD>
-0.34

$$$$
>  <Compound>
CN(C)c1nc(N[C@H]2CC[C@@H](NC(=O)c3ccc(F)c(F)c3)CC2)nc2ccccc12

>  <logD>
3.13

$$$$
>  <Compound>
N#CC[C@H](C1CCCC1)n1cc(-c2ncnc3[nH]ccc23)cn1 [RUXOLITINIB]

>  <logD>
2.55

$$$$
>  <Compound>
O=c1cc(-c2ccccc2)oc2ccc(O)cc12 [6-HYDROXYFLAVONE]

>  <logD>
3.6

$$$$
>  <Compound>
CCCSc1ncccc1C(=O)N(C)C1CCOCC1

>  <logD>
1.63

$$$$
>  <Compound>
Cc1n[nH]c(C)c1Cc1sc2c(c1C(=O)N1C[C@H](O)CO1)c(=O)n(C)c(=O)n2CC(C)C

>  <logD>
1.07

$$$$

====

Form field: pKa (one value per entry).
Experiment: physchem

>  <Molecule>
Cc1ccccc1S(=O)(=O)NC(=O)N1CCC(N2CCC(Oc3ccc(Cl)c(Cl)c3)CC2)CC1

>  <Value qualifier>
=

>  <pKa>
3.4

$$$$
>  <Molecule>
O=C(O)c1cccc(CN2CCC(CN3CCC(Oc4ccc(Cl)c(Cl)c4)CC3)CC2)c1

>  <Value qualifier>
=

>  <pKa>
3.5

$$$$
>  <Molecule>
COc1ccc(Cl)cc1C(=O)NCCc1ccc(S(=O)(=O)NC(=O)NC2CCCCC2)cc1 [GLYBURIDE]

>  <Value qualifier>
=

>  <pKa>
3.76

$$$$
>  <Molecule>
CCN(CC)CCNC(=O)c1ccc(NS(C)(=O)=O)cc1 [SEMATILIDE]

>  <Value qualifier>
=

>  <pKa>
7.52

$$$$
>  <Molecule>
Cc1cc(CN(CC(=O)Nc2ccc(Cl)cc2Cl)C2CCCCC2)ccc1OCC(=O)O

>  <Value qualifier>
=

>  <pKa>
2.9

$$$$
>  <Molecule>
CO[C@@]1(NC(=O)CSCC#N)C(=O)N2C(C(=O)O)=C(CSc3nnnn3C)CS[C@@H]21

>  <Value qualifier>
=

>  <pKa>
3.37

$$$$
>  <Molecule>
CCC(=O)NC(c1cccs1)c1cc(Cl)c2cccnc2c1O (stereo not given)

>  <Value qualifier>
=

>  <pKa>
8.19

$$$$
>  <Molecule>
O=C(O)[C@H](Cc1ccccc1)N1CCC(CN2CCC(Oc3ccc(Cl)c(Cl)c3)CC2)CC1

>  <Value qualifier>
=

>  <pKa>
3.1

$$$$
>  <Molecule>
O=C(O)c1ccc(CN2CCC(CN3CCC(Oc4ccc(Cl)c(Cl)c4)CC3)CC2)cc1

>  <Value qualifier>
=

>  <pKa>
3.5

$$$$
>  <Molecule>
COc1nc(Cl)c(Cl)nc1NS(=O)(=O)c1ccc(Cl)s1

>  <Value qualifier>
=

>  <pKa>
3.6

$$$$
>  <Molecule>
NC1CCc2cc(O)c(O)cc2C1 (stereo not given)

>  <Value qualifier>
=

>  <pKa>
9.1

$$$$
>  <Molecule>
CCCc1c2oc(C(=O)O)cc(=O)c2cc2c(=O)cc(C(=O)O)n(CC)c12

>  <Value qualifier>
<

>  <pKa>
2

$$$$
>  <Molecule>
O=C(O)c1cccc(C(=O)N2CCC(N3CCC(Oc4ccc(Cl)c(Cl)c4)CC3)CC2)c1

>  <Value qualifier>
=

>  <pKa>
3.4

$$$$
>  <Molecule>
O=S(=O)(Nc1ncns1)c1cc(F)c(Oc2ccc(Cl)cc2-c2ccnn2C2CNC2)cc1F

>  <Value qualifier>
=

>  <pKa>
3.19

$$$$
>  <Molecule>
Cc1ccc(S(=O)(=O)NC(=O)NN2CCCCCC2)cc1 [TOLAZAMIDE]

>  <Value qualifier>
=

>  <pKa>
5.8

$$$$
>  <Molecule>
Cc1ccc(S(=O)(=O)Nc2c(C(=O)N[C@@H](C)C(C)(C)C)c(C(F)(F)F)nn2-c2ccccc2)cc1

>  <Value qualifier>
=

>  <pKa>
3.8

$$$$
>  <Molecule>
CC1(C)S[C@@H]2[C@H](NC(=O)Cc3ccccc3)C(=O)N2[C@H]1C(=O)O

>  <Value qualifier>
=

>  <pKa>
3.32

$$$$
>  <Molecule>
NCCc1ccc(O)c2nc(O)ccc12

>  <Value qualifier>
=

>  <pKa>
7.6

$$$$
>  <Molecule>
C(=C\c1nn[nH]n1)/c1ccccc1

>  <Value qualifier>
=

>  <pKa>
4.5

$$$$
>  <Molecule>
O=C(O)c1cc(=O)c2c(OCC(O)COc3cccc4oc(C(=O)O)cc(=O)c34)cccc2o1

>  <Value qualifier>
<

>  <pKa>
2

$$$$
>  <Molecule>
NCC1CCC(C(=O)O)CC1 (stereo not given)

>  <Value qualifier>
=

>  <pKa>
4.9

$$$$
>  <Molecule>
Cc1cc(CN2Cc3ccccc3C2C(=O)Nc2ccc(Cl)cc2Cl)ccc1OCC(=O)O (stereo not given)

>  <Value qualifier>
=

>  <pKa>
3.1

$$$$
>  <Molecule>
Cn1c(=O)c2nn[nH]c2n(C)c1=O

>  <Value qualifier>
=

>  <pKa>
4.4

$$$$
>  <Molecule>
CN(C)CCn1nnnc1SCC1=C(C(=O)O)N2C(=O)[C@@H](NC(=O)Cc3csc(N)n3)[C@H]2SC1

>  <Value qualifier>
=

>  <pKa>
2.41

$$$$
>  <Molecule>
CCCSc1ccc2nc(NC(=O)OC)[nH]c2c1

>  <Value qualifier>
=

>  <pKa>
10.5

$$$$
>  <Molecule>
Cc1c(Sc2ccc(Cl)cc2)c2c(NS(C)(=O)=O)cccc2n1CC(=O)O

>  <Value qualifier>
=

>  <pKa>
2.9

$$$$
>  <Molecule>
Cc1ccc2c(c1)c(S(=O)(=O)c1ccc(Cl)cc1)c(C)n2CC(=O)O

>  <Value qualifier>
=

>  <pKa>
3.7

$$$$
>  <Molecule>
CCCN(CCC)CCc1ccc(O)c(NC(C)=O)c1

>  <Value qualifier>
=

>  <pKa>
8.75

$$$$
>  <Molecule>
O=C(O)c1cc(=O)c2ccc(O)cc2o1

>  <Value qualifier>
<

>  <pKa>
2

$$$$
>  <Molecule>
CCS(=O)(=O)c1ccc(-c2cc(C(F)(F)F)ccc2OCC(=O)O)c(C)c1

>  <Value qualifier>
=

>  <pKa>
3.2

$$$$
>  <Molecule>
CCS(=O)(=O)c1ccc(-c2cc(C(F)(F)F)ccc2OC(C)(C)C(=O)O)c(C)c1

>  <Value qualifier>
=

>  <pKa>
3.2

$$$$
>  <Molecule>
NCCc1ccc(O)c(O)c1F

>  <Value qualifier>
=

>  <pKa>
7.8

$$$$
>  <Molecule>
CCCN(CCC)CCc1ccc(O)c2c1CC(=O)N2 [SKF-89124A]

>  <Value qualifier>
=

>  <pKa>
8.35

$$$$
>  <Molecule>
Cc1c(S(=O)(=O)c2ccc(Cl)cc2)c2c(NS(C)(=O)=O)cccc2n1CC(=O)O

>  <Value qualifier>
=

>  <pKa>
2.8

$$$$
>  <Molecule>
O=C(NC[C@@H](O)CN1CCC(Oc2ccc(Cl)c(Cl)c2)CC1)c1c[nH]c(=O)cc1C(F)(F)F

>  <Value qualifier>
=

>  <pKa>
8.3

$$$$

Ref: ChEMBL document CHEMBL3301361
